src = PubChem BioAssay (NCI)

Test system: SF-539 CNS
TEST_SUMMARY: NCI tumour cell line growth inhibition, 48 h
The threshold is inclusive: TGI of exactly 10 µM counts as 1; values below receive 0.

Check out these entries, answers already filled in.
[
  {
    "COMPOUND": "O=C(N/N=C\\c1ccc(Cl)cc1)Nc1ccc2ccccc2c1",
    "CLASS_LABEL": 1
  },
  {
    "COMPOUND": "COC(=O)CNC(=O)C(=O)c1c(O)c(O)c(C(C)C)c2cc(C)c(-c3c(C)cc4c(C(C)C)c(O)c(O)c(C(=O)C(=O)NCC(=O)OC)c4c3O)c(O)c12",
    "CLASS_LABEL": 0
  },
  {
    "COMPOUND": "COc1cc(C[C@H]2COC(=O)[C@]2(O)Cc2ccc(OCc3ccccc3)c(OC)c2)ccc1OCc1ccccc1",
    "CLASS_LABEL": 1
  },
  {
    "COMPOUND": "Nc1n[n+]([O-])c2ccc(Cl)cc2[n+]1[O-]",
    "CLASS_LABEL": 1
  },
  {
    "COMPOUND": "COc1cc2ncnc(NS(=O)(=O)c3cc4ccccc4s3)c2cc1OC",
    "CLASS_LABEL": 1
  }
]

**Q:** Answer whether TGI of `O=C1c2ccccc2C(=O)c2c1ccc1conc21` is greater than or equal to 10 µM.
**A:** 0

**Q:** Answer whether TGI of `COc1cc2c(cc1OC)C(CCN)=NCC2` is greater than or equal to 10 µM.
**A:** 1

**Q:** Answer whether TGI of `CC(C)(C)OC(=O)N(CCCCN(CCCn1c2c(c3ccccc3c1=O)C(=O)c1ccccc1-2)C(=O)OC(C)(C)C)CCCn1c2c(c3ccccc3c1=O)C(=O)c1ccccc1-2` is greater than or equal to 10 µM.
**A:** 1

**Q:** Answer whether TGI of `O=C1c2c(c3c4cc(F)ccc4oc3c3[nH]c4ccccc4c23)C(=O)N1O` is greater than or equal to 10 µM.
**A:** 0

**Q:** Answer whether TGI of CCOP(=O)(OCC)C(c1ccc(F)cc1)N(C(=O)NC(F)(F)F)c1ccc(F)cc1 (stereo not given) is greater than or equal to 10 µM.
**A:** 1

**Q:** Answer whether TGI of CC(NCCN(C)C)C1CCC2C3CCc4cc(O)ccc4C3CCC12C (stereo not given) is greater than or equal to 10 µM.
**A:** 0

**Q:** Answer whether TGI of `Nc1c(C(=O)c2cccc(-c3cccnc3)c2)cnn1-c1ccc(F)cc1` is greater than or equal to 10 µM.
**A:** 1

**Q:** Answer whether TGI of `O=NNc1ccc(-c2ccccc2)cn1` is greater than or equal to 10 µM.
**A:** 1
